Measured values drawn from patent US20240016931A1 for this set.

molecular target: T1, His-tagged human TSLP antigen (huTSLP-his) (human); experiment: ELISA, coated huTSLP-his;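 further: binding of antibodies to plate-bound TSLP read as absorbance at 450 nm after TMB colour development, EC50 derived from binding curves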
T1 construct: Secreted from HEK293E and purified on nickel; whole entry named; also called Human TSLP-his
Each entry below carries its recorded EC50.
Answer as a quantity: numeral, then unit.

binder	EC50
Ch199 (antibody, human IgG1, kappa, V domains shown, murine variable regions on human IgG1-YTE / kappa; also called Chi 99; chimeric antibody corresponding to mab199) VH: QVQLQQSGPQLVRPGASVKISCKASGYSFTTYWMHWVKQRPGQGLEWIGMIDPSDSETTLIQKFKDKATLTVDKSSSTAYMQLSSPTSEDSAVYYCARTLDGYYDYWGQGTTLTVSS VL: DIQMTQSPASLSASVGETVTITCRASENIYSYLAWYQQKQGKSPQLLVYFAKTLAEGVPSRFSGSVSGTQFSLKINSLQPEDFGSYYCQHHYGTPWTFGGGTKLEIKR	0.516 nM
hu179-31 (antibody, human IgG1, kappa, V domains shown, IgG1-YTE, kappa) VH: EVQLVQSGAEVKKPGSSVKVSCKASGYTFSNYLIEWVRQAPGQGLEWIGVIDPGNGDTNYNENFKGRATLTADKSTSTAYIELSSLRSEDTAVYYCAREDNTGTAFDYWGQGTTVTVSS VL: DIVMTQSPDSLAVSLGERATINCKASQSVSSDVTWYQQKPGQSPKLLIYYVSNEYTGVPDRFSGSGSGTDFTLTISSLQAEDVAVYYCQQHHRFPLTFGQGTKLEIKR	0.201 nM

What value of measured EC50 is listed for hu179-02 (antibody, human IgG1, kappa, V domains shown, IgG1-YTE, kappa) VH: EVQLVQSGAEVKKPGSSVKVSCKASGGTFSNYLIEWVRQAPGQGLEWMGVIDPGNGDTNYNENFKGRVTITADKSTSTAYMELSSLRSEDTAVYYCAREDNTGTAFDYWGQGTTVTVSS VL: DIVMTQSPDSLAVSLGERATINCKASQSVSSDVTWYQQKPGQSPKLLIYYVSNHYTGVPDRFSGSGSGTDFTLTISSLQAEDVAVYYCQQHHRFPLTFGQGTKLEIKR ? 0.17 nM

Similarly, hu3-12 (antibody, human IgG1, kappa, V domains shown, IgG1-YTE, kappa; also called hu3VH2-H110Y + hu3VL5) VH: EVQLVQSGAEVKKPGASVKVSCKASGYTFTDDYMNWVRQAPGQRLEWMGIISPYNGGTSYNQKFKGRVTLTVDKSASTAYMELSSLRSEDTAVYYCAREDYDYDGYAMDYWGQGTTVTVSS VL: EIVLTQSPATLSLSPGERATLSCRASSSVSYMHWYQQKPGQAPRPWIYATSNLASGVPARFSGSGSGTSYTLTISRLEPEDFAVYYCQQSDNVRGFGGGTKVEIKR ? 0.152 nM

Item: hu119-23 (antibody, human IgG1, kappa, V domains shown, IgG1-YTE, kappa) VH: EVQLVQSGAEVKKPGSSVKVSCKASGFTFSTYNMHWVKHAPGQGLEWIGAIYPGNGETSYNQKFKDRATLTVDKSTSTAYMELSSLRSEDTAVYYCAREDDYGEGYFDVWGQGTTVTVSS VL: DIVLTQSPATLSLSPGERATLSCRASESVDNSGLSFMHWYQQKPGQPPRLLLYRASNLGSGIPARFSGSGSGTDFTLTISSLEPEDFAVYYCQQINTDPLTFGQGTKLEIKR 0.34 nM
